Protocol Description: Clearance in rat plasma at 1 to 3 mg/kg
Format: ADME, organism-based
Design: dose 1-3 mg/kg
Readout Label: clearance

>>> observed_value("NC(=O)c1nc(-c2cccc(-c3ccccc3C(F)(F)F)c2)c[nH]1")
"23 mL/min/kg"
>>> observed_value("NC(=O)c1csc(-c2cccc(-c3ccccc3OC(F)(F)F)c2)n1")
"112 mL/min/kg"

---

Protocol Description: Half life in rat plasma at 1 to 2 mg/kg
Format: ADME, organism-based
Parameters: dose 1-2 mg/kg
Readout Label: half-life

>>> observed_value("FC(F)(F)c1ccccc1-c1cccc(-c2c[nH]cn2)c1")
"37.8 min"
>>> observed_value("NC(=O)c1nc(-c2cccc(-c3ccccc3OC(F)(F)F)c2)cs1")
"79.8 min"

---

Below, each entry is listed with its recorded clearance.
Protocol Description: Clearance in rat plasma at 1 to 2 mg/kg
Format: ADME, organism-based
Parameters: dose 1-2 mg/kg
Readout Label: clearance (mL/min/kg)

>>> observed_value("FC(F)(F)c1ccccc1-c1cccc(-c2c[nH]cn2)c1")
32
>>> observed_value("NC(=O)c1nc(-c2cccc(-c3ccccc3OC(F)(F)F)c2)cs1")
52

---

Protocol Description: Oral bioavailability in rat at 1 to 2 mg/kg
Type: ADME, organism-based
Condition Parameters: in vivo
Below, each entry is listed with its recorded bioavailability.
Readout Label: bioavailability (%)

>>> observed_value("FC(F)(F)c1ccccc1-c1cccc(-c2c[nH]cn2)c1")
71
>>> observed_value("NC(=O)c1nc(-c2cccc(-c3ccccc3OC(F)(F)F)c2)cs1")
20

---

Protocol Description: Metabolic stability in dog hepatocytes assessed as compound remaining after 2 hrs
Assay type: ADME, cell-based, Canis lupus familiaris, Hepatocyte
Condition Parameters: read-out: INH
Readout Label: remaining at 2 h

>>> observed_value("NC(=O)c1nc(-c2cccc(-c3ccccc3OC(F)(F)F)c2)cs1")
"< 5%"

---

System Tested: hERG (KCNH2) (Homo sapiens)
Sequence (Q12809 whole entry): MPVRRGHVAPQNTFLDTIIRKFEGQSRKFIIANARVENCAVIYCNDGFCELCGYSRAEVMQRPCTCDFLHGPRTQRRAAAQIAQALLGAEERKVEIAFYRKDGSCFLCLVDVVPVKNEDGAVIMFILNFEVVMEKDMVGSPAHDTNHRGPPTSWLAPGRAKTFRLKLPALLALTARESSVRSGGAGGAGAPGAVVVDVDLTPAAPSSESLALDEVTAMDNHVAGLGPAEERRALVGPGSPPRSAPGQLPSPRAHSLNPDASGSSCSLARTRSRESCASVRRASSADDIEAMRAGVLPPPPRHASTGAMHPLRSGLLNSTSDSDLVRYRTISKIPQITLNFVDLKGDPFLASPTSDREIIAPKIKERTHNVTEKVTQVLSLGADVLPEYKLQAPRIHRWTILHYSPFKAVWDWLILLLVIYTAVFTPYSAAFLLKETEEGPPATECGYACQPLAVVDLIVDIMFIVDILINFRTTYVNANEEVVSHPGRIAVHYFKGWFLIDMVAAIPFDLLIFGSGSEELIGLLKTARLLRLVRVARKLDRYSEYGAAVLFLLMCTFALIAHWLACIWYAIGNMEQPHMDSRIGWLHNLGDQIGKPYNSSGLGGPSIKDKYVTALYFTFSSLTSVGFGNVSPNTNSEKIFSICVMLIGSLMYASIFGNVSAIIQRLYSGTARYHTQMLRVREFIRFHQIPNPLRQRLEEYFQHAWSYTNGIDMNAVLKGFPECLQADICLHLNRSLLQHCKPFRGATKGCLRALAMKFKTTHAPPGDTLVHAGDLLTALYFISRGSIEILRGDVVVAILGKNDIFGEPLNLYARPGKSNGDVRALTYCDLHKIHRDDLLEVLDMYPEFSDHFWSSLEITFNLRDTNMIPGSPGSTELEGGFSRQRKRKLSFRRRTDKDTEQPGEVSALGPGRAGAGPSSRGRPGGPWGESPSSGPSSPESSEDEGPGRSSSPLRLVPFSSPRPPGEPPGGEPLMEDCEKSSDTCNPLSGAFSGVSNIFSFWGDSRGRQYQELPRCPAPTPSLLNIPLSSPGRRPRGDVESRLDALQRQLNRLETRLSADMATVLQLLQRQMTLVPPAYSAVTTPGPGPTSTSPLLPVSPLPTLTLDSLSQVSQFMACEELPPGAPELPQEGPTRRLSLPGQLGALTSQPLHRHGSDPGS
Protocol Description: Displacement of radiolabeled MK-0499 from human ERG at 1 uM
Condition Parameters: probe radiolabeled MK-0499
Below, each entry is listed with its recorded inhibition at 1 µM.
Readout Label: inhibition at 1 µM (%)

>>> observed_value("FC(F)(F)c1ccccc1-c1cccc(-c2c[nH]cn2)c1")
75
>>> observed_value("NC(=O)c1nc(-c2cccc(-c3ccccc3OC(F)(F)F)c2)cs1")
0.5
>>> observed_value("NC(=O)c1csc(-c2cccc(-c3ccccc3OC(F)(F)F)c2)n1")
55
>>> observed_value("NC(=O)c1nc(-c2cccc(-c3ccccc3C(F)(F)F)c2)c[nH]1")
25

---

Protocol Description: Oral bioavailability in rat at 1 to 3 mg/kg
Assay type: ADME, organism-based
Condition Parameters: in vivo
Readout Label: bioavailability

>>> observed_value("NC(=O)c1nc(-c2cccc(-c3ccccc3C(F)(F)F)c2)c[nH]1")
"46%"
>>> observed_value("NC(=O)c1csc(-c2cccc(-c3ccccc3OC(F)(F)F)c2)n1")
"22%"

---

Below, each entry is listed with its recorded inhibition.
System Tested: Sodium channel protein type 9 subunit alpha (Homo sapiens, UniProt Q15858)
Sequence (Q15858 whole entry, looked up): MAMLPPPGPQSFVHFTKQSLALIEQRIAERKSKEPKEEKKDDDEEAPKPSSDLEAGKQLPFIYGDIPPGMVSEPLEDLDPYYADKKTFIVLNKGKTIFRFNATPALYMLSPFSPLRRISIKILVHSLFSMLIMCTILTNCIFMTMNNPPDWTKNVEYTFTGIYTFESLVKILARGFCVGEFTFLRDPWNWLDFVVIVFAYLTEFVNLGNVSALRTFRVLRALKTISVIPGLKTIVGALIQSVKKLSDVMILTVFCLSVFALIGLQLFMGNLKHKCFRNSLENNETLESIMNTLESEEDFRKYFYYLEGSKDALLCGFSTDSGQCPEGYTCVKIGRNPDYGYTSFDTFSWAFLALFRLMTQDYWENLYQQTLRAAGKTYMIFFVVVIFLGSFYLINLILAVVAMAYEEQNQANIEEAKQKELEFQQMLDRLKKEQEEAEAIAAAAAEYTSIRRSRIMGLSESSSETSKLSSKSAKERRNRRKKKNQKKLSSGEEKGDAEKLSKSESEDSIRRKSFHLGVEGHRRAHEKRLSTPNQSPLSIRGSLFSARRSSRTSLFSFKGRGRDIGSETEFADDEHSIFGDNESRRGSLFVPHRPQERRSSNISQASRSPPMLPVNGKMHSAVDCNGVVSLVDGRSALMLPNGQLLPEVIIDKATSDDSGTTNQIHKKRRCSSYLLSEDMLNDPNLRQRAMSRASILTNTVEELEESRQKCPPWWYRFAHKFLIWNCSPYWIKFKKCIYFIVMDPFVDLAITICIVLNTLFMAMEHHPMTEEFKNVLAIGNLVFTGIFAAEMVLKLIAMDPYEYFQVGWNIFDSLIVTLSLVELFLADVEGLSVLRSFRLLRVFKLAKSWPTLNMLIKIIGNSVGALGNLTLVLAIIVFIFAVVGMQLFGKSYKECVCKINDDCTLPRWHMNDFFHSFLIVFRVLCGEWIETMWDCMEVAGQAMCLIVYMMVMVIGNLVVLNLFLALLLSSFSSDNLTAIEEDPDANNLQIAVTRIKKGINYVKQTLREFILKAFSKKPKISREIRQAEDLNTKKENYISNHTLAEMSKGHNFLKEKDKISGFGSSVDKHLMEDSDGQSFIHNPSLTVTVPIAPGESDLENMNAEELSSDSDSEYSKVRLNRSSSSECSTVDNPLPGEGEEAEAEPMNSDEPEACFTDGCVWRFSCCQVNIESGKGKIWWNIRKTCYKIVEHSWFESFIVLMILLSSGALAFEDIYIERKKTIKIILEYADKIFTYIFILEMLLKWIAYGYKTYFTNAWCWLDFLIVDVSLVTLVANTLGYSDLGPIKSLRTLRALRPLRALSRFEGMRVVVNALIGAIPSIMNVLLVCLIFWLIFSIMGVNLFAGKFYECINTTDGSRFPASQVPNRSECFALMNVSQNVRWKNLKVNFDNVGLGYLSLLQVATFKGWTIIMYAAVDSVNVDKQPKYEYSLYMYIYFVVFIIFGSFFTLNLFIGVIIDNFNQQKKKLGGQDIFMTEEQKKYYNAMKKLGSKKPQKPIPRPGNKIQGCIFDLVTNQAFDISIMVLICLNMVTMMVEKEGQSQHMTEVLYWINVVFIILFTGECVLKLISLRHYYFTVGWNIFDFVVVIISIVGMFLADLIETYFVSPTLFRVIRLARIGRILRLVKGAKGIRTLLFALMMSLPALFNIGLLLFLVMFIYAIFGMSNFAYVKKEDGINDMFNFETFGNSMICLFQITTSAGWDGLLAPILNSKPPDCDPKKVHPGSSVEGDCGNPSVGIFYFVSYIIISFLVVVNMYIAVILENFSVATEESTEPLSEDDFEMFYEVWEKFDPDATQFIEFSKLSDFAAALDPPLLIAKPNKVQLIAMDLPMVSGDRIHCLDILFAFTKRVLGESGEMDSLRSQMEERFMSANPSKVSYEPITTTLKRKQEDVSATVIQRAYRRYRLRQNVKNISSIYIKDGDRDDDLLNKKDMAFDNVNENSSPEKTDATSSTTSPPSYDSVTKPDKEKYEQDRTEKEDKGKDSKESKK
Protocol Description: Blockade of human Nav1.7 at 1 uM by voltage ion probe reader based FRET assay
Readout Label: inhibition (%)

>>> observed_value("Nc1nc(-c2cccc(-c3ccccc3OC(F)(F)F)c2)cs1")
84
>>> observed_value("NC(=O)c1nc(-c2ccc(-c3ccccc3OC(F)(F)F)cc2)cs1")
6.1
>>> observed_value("Nc1nc(-c2cccc(-c3ccccc3OC(F)(F)F)c2)co1")
37
>>> observed_value("CC(=O)Nc1nc(-c2cccc(-c3ccccc3OC(F)(F)F)c2)cs1")
5
